biological target: human B7-H3 expressed on A375 tumor cells (human) (UniProt Q5ZPR3); test: flow cytometry on A375 cells, MFI(PE); unit from the axis Conc (nM)
Consider the following binders and their measured EC50 readings.
Write it as a number; the unit nM goes unstated.

Worked cases, answers included:
{"Binder": "81C8A1-z4 (antibody, V domains shown) VH: QVTLKESGPALVKPTQTLTLTCTFSGFSLSTSGMGVSWIRQPPGKALEWLAHIYWDDDRRYNPSLKSRLTISKDTSKNQVVLTMTNMDPVDTATYYCARSPYGSEAYWGQGTLVTVSS VL: EIVLSQSPDFQSVTPKEKVTITCRASSSVSFIQWYQQKPDQSPKPWIYSPSNLASGVPSRFSGSGSGTDYTLTINSLEAEDAATYYCQQWSSYPWTFGQGTKVEIK", "Numeric value": 0.28}
{"Binder": "MGA017 (antibody, from a related filing, V domains shown) VH: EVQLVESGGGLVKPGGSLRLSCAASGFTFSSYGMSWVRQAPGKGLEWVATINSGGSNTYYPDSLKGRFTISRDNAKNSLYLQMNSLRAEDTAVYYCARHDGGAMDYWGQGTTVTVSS VL: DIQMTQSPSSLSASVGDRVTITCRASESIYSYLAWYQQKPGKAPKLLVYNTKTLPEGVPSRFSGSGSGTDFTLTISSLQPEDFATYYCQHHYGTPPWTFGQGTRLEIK", "Numeric value": 0.26}
{"Binder": "81C8A1-z3 (antibody, V domains shown) VH: QVTLKESGPALVKPTQTLTLTCTFSGFSLSTSGMGVSWIRQPPGKALEWLAHIYWDDDRRYNPSLKSRLTISKDTSKNQVVLTMTNMDPVDTATYYCARSPYGSEAYWGQGTLVTVSS VL: EIVLTQSPDFQSVTPKEKVTITCRASSSVSFIQWYQQKPDQSPKPWIYSPSNLASGVPSRFSGSGSGTDFTLTINSLEAEDAATYYCQQWSSYPWTFGQGTKVEIK", "Numeric value": 0.23}
{"Binder": "81C8A1 (antibody, V domains shown) VH: QVTLKESGPGILQPSQTLSLTCSFSGFSLSTSGMGVSWIRQPPGKGLEWLAHIYWDDDRRYNPSLKSRLTISRDTSRNQVFLQITTVDTADTATYYCARSPYGSEAYWGQGTLVIVSA VL: QIVLSQSPTILSAFPGEKVTMTCRASSSVSFIQWYQQKSGSSPKPWIYSPSNLASGVPTRFSGSGSGTSYSLTIGRVEAEDAATYYCQQWSSYPWTFGGGTKVEIK", "Numeric value": 0.25}
{"Binder": "81C8A1-z8 (antibody, V domains shown) VH: QVTLKESGPALVKPTQTLTLTCTFSGFSLSTSGMGVSWIRQPPGKALEWLAHIYWDDDRRYNPSLKSRLTISRDTSKNQVVLTMTNMDPVDTATYYCARSPYGSEAYWGQGTLVTVSS VL: EIVLSQSPDFQSVTPKEKVTITCRASSSVSFIQWYQQKPDQSPKPWIYSPSNLASGVPSRFSGSGSGTDYTLTINSLEAEDAATYYCQQWSSYPWTFGQGTKVEIK", "Numeric value": 0.25}

What value of measured EC50 is listed for 81C8A1-z7 (antibody, V domains shown) VH: QVTLKESGPALVKPTQTLTLTCTFSGFSLSTSGMGVSWIRQPPGKALEWLAHIYWDDDRRYNPSLKSRLTISRDTSKNQVVLTMTNMDPVDTATYYCARSPYGSEAYWGQGTLVTVSS VL: EIVLTQSPDFQSVTPKEKVTITCRASSSVSFIQWYQQKPDQSPKPWIYSPSNLASGVPSRFSGSGSGTDFTLTINSLEAEDAATYYCQQWSSYPWTFGQGTKVEIK ?
0.39
